Entries and their measured reduction of plasma level between 0.5 and 2 h follow.
Assay: In vivo metabolism of CBN in female mice, plasma levels by targeted LC/MS/MS
Design: species or system C57BL/6 mice
Settings: IV administration of CBN
Unit fold implied. Number only.

Data request, read-out reduction of plasma level between 0.5 and 2 h, for CCCC[C@H](O)c1cc(O)c2c(c1)OC(C)(C)c1ccc(C)cc1-2
3

---
So what's the measured reduction of plasma level between 0.5 and 2 h for this one? CCCCCc1cc(O)c2c(c1)OC(C)(C)c1ccc(CO)cc1-2 [CBN-11-OH, cannabinol-11-hydroxy]
3

Note, next up: CCCCCC1=CC(=O)C2=C(OC(C)(C)c3ccc(C)cc32)C1=O
9
